The measurements presented in this section are drawn from patent US20260078146A1.

For each entry below, report its IC50 value.
- system under test: T1, EphA2 ligand binding domain (EphA2-LBD), recombinant (UniProt P29317 27-200, limits assumed)
- T1 construct: also called EphA2 protein; isolated EphA2-LBD
- T1 sequence (P29317 27-200 limits assumed): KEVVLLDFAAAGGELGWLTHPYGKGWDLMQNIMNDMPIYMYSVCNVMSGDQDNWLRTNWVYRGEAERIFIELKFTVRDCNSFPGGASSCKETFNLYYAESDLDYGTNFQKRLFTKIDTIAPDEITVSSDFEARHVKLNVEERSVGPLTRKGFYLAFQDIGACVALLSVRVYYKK
- measurement description: DELFIA displacement; competitor: immobilised 123B9-Biotin
*1 amine or outer side, *2 acyl side, *3 side chain or, on linkers, in order; H or OH if unused. Where no end group is shown, it is not given here. [ ]: non-standard residue; d: D form. The star is where a group is joined. 2‑CF3‑Bip = 4-(2-trifluoromethylphenyl)-L-phenylalanine, O=C([C@H](Cc1ccc(-c2ccccc2C(F)(F)F)cc1)N[*:1])[*:2]; Phe(2-NH2) = O=C([C@H](Cc1ccccc1N[*:3])N[*:1])[*:2]; Acetyl(2-(piperazin-1-yl)) = O=C(CN1CCNCC1)*; Chg = N[C@H](C(=O)O)C1CCCCC1; GABA = NCCCC(=O)O; βAla = NCCC(=O)O

Request: Need IC50 of dimeric targefrin agent 29 (n = 2, β-Ala spacer) (also: branching Lys carries a second identical arm (dimer)) peptide: {Acetyl(2-(piperazin-1-yl))}-[Phe(2-NH2)]LA[2‑CF3‑Bip]PDA[Chg]PFRP[βAla] Lys-NH2 , thanks.
Response: 7.6 nM

Request: Need IC50 of targefrin-dimer (agent 28, n = 1, Gly-Lys linker) (branching Lys that carries one arm on each of its two amines; C-terminal CONH2; N-terminal PiperazAcAcid cap; X1 = 2-NH2-Phe; X4 = 2-CF3-Bip; X8 = Chg; the C-terminal Gly is joined to an amine of the branching Lys) peptide: XLAXPDAXPFRPG K , thanks.
Response: 6.5 nM

Request: Need IC50 of dimeric targefrin agent 30 (n = 3, GABA spacer) (also: branching Lys carries a second identical arm (dimer)) peptide: {Acetyl(2-(piperazin-1-yl))}-[Phe(2-NH2)]LA[2‑CF3‑Bip]PDA[Chg]PFRP[GABA] Lys-NH2 , thanks.
Response: 5.3 nM
